Task for the reader: assign each of the following variants its reported normalized RNA/DNA level without ligand (log10).
B1: library; a variant is named by its letters at N, in order (parent)
chain: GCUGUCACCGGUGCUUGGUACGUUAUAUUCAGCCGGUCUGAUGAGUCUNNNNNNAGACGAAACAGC

Variants of: B1
Test: normalized RNA/DNA level without ligand (relative to sTRSVctl = 100) (log10 (% of sTRSVctl)); HEK293T overexpressing SLC46A1; higher = less ribozyme self-cleavage, higher mRNA level
Stated conditions: without (6R,S)-folinic acid; ligand present: no
Numbers only.

- Chain sequence: "GCUGUCACCGGUGCUUGGUACGUUAUAUUCAGCCGGUCUGAUGAGUCUCGCCGAAGACGAAACAGC [CGCCGA]"
  Test value: 2.03
- Chain sequence: "GCUGUCACCGGUGCUUGGUACGUUAUAUUCAGCCGGUCUGAUGAGUCUGGUUAGAGACGAAACAGC [GGUUAG]"
  Test value: 1.98
- Chain sequence: "GCUGUCACCGGUGCUUGGUACGUUAUAUUCAGCCGGUCUGAUGAGUCUACUUGCAGACGAAACAGC [ACUUGC]"
  Test value: 2.04
- Chain sequence: "GCUGUCACCGGUGCUUGGUACGUUAUAUUCAGCCGGUCUGAUGAGUCUGGAGGCAGACGAAACAGC [GGAGGC]"
  Test value: 1.94
- Chain sequence: "GCUGUCACCGGUGCUUGGUACGUUAUAUUCAGCCGGUCUGAUGAGUCUCCUGUGAGACGAAACAGC [CCUGUG]"
  Test value: 2.05
- Chain sequence: "GCUGUCACCGGUGCUUGGUACGUUAUAUUCAGCCGGUCUGAUGAGUCUCAGUCGAGACGAAACAGC [CAGUCG]"
  Test value: 2.02
- Chain sequence: "GCUGUCACCGGUGCUUGGUACGUUAUAUUCAGCCGGUCUGAUGAGUCUCGAGUCAGACGAAACAGC [CGAGUC]"
  Test value: 2.05
- Chain sequence: "GCUGUCACCGGUGCUUGGUACGUUAUAUUCAGCCGGUCUGAUGAGUCUUAGAAAAGACGAAACAGC [UAGAAA]"
  Test value: 1.92

I have 7 variants here; please give me normalized RNA/DNA level without ligand (log10) for each one.
1. GCUGUCACCGGUGCUUGGUACGUUAUAUUCAGCCGGUCUGAUGAGUCUGGCUAUAGACGAAACAGC [GGCUAU]
2. GCUGUCACCGGUGCUUGGUACGUUAUAUUCAGCCGGUCUGAUGAGUCUUUUUUAAGACGAAACAGC [UUUUUA]
3. GCUGUCACCGGUGCUUGGUACGUUAUAUUCAGCCGGUCUGAUGAGUCUGCCGUGAGACGAAACAGC [GCCGUG]
4. GCUGUCACCGGUGCUUGGUACGUUAUAUUCAGCCGGUCUGAUGAGUCUACAAGAAGACGAAACAGC [ACAAGA]
5. GCUGUCACCGGUGCUUGGUACGUUAUAUUCAGCCGGUCUGAUGAGUCUAACUCUAGACGAAACAGC [AACUCU]
6. GCUGUCACCGGUGCUUGGUACGUUAUAUUCAGCCGGUCUGAUGAGUCUGGUGCGAGACGAAACAGC [GGUGCG]
7. GCUGUCACCGGUGCUUGGUACGUUAUAUUCAGCCGGUCUGAUGAGUCUAUCAGGAGACGAAACAGC [AUCAGG]

1: 2.05; 2: 2; 3: 1.99; 4: 1.97; 5: 2.02; 6: 2.02; 7: 1.96
